Give GI50 for every item shown.
Test system: NCI/ADR-RES
Experiment: NCI tumour cell line growth inhibition, 48 h
Active and inactive are the calls of the source. Rule as the data show it: active = GI50 up to about 1.1 µM and inactive = higher.

QUERY: Consider the compound shown here: CCOC(=O)C1C(O)CC2c3ccccc3-c3ccccc3C21 (stereo unspecified) What is its recorded GI50?
RESULT: 40.5 µM (inactive)

QUERY: Consider the compound shown here: "CN(C)S(=O)(=O)/N=C/c1cccc(/C=N/S(=O)(=O)N(C)C)c1" What is its recorded GI50?
RESULT: 81.7 µM (inactive)

QUERY: Consider the compound shown here: Cc1c2cc[n+](C)cc2c(COC2OC(CO)C(O)C2O)c2c3ccccc3n(C)c12 (stereo unspecified) What is its recorded GI50?
RESULT: > 97.7 µM (inactive)

QUERY: Consider the compound shown here: "COc1cc2c3c(c1)CCCN3CCC2" What is its recorded GI50?
RESULT: > 10 µM (inactive)

QUERY: Consider the compound shown here: "Nc1ncnc2oc(-c3cccs3)nc12" What is its recorded GI50?
RESULT: > 100 µM (inactive)

QUERY: Consider the compound shown here: "CN(/N=C(\C(=O)O)c1ccccc1)C1=NCCCN1" What is its recorded GI50?
RESULT: > 100 µM (inactive)

QUERY: Consider the compound shown here: "Cn1nc(S(N)(=O)=O)s/c1=N/S(=O)(=O)c1ccc(N)cc1" What is its recorded GI50?
RESULT: > 100 µM (inactive)

QUERY: Consider the compound shown here: "N#Cc1cc(-c2nc3ccc(F)cc3s2)ccc1N" What is its recorded GI50?
RESULT: > 100 µM (inactive)

QUERY: Consider the compound shown here: "C(=N\Nc1nnc(-c2nnc(N/N=C/c3ccccc3)o2)o1)/c1ccccc1" What is its recorded GI50?
RESULT: > 10 µM (inactive)

QUERY: Consider the compound shown here: C=CN1CCN(c2ccccc2)P1(=O)Oc1ccccc1 (stereo unspecified) What is its recorded GI50?
RESULT: 55.2 µM (inactive)

QUERY: Consider the compound shown here: "O=C(c1cc2c(c3ccccc13)NC1(CCCCC1)N=C2C(F)(F)F)C(F)(F)F" What is its recorded GI50?
RESULT: 4.53 µM (inactive)

====

Tested on: HT-29
Assay: NCI tumour cell line growth inhibition, 48 h
Activity calls are given as the source filed them. No stated cut-off is given here; in the data, active = GI50 up to about 1.1 µM and inactive = higher.
Allowed answers: Yes = active, No = inactive

QUERY: Fill in: this test's call for "O=C(NCCCCNc1cccccc1=O)OCc1ccccc1" is ___
RESULT: No

QUERY: Fill in: this test's call for COC(CC1(CCNc2ccccc2)C(=O)N(COCC[Si](C)(C)C)c2ccccc21)OC (stereo unspecified) is ___
RESULT: No

QUERY: Fill in: this test's call for CC1=NN(C(=O)c2ccccc2)C(=O)C1/N=N/c1ccccc1C(=O)O (stereo unspecified) is ___
RESULT: No

QUERY: Fill in: this test's call for "Cc1ccc2nc(C(C)C)c(=O)[nH]c2c1" is ___
RESULT: No

QUERY: Fill in: this test's call for "CCOC(=O)c1ccc(/N=c2\oc3ccc(OC)cc3cc2-c2nc3ccccc3[nH]2)cc1" is ___
RESULT: No

QUERY: Fill in: this test's call for "C/C(=N\NC(=S)N(C)C)c1nc2cccnc2[nH]1" is ___
RESULT: Yes

QUERY: Fill in: this test's call for "COC(=O)c1ccc(Cc2ccc(C(=O)OC)o2)o1" is ___
RESULT: No

QUERY: Fill in: this test's call for "CCN(CC)CCCNc1nnc(C)c2[nH]c3ccccc3c12" is ___
RESULT: No

QUERY: Fill in: this test's call for "Cc1ccc(NC(=O)C(=O)CC(=O)c2ccccc2)cc1C" is ___
RESULT: No

QUERY: Fill in: this test's call for "C=CNC(=S)n1nc(-c2ccccc2NC(=O)C(F)(F)F)c(=O)n(C(=S)NC=C)c1=S" is ___
RESULT: No

QUERY: Fill in: this test's call for "O=C(c1cc2c(c3ccccc13)NC1(CCCCC1)N=C2C(F)(F)F)C(F)(F)F" is ___
RESULT: No
